System: Plasmodium falciparum NF54 asexual blood stage
Run Description: % inhibition of asexual blood stage proliferation (pLDH); higher = more inhibition
Particulars: 20 µM; 72 h
Param threshold (60%) applies to % inhibition of asexual blood stage proliferation; output met when value >= threshold, not met when value < threshold.

Input line: Check the entry "CCOC(=O)/C=C/[C@H](C[C@@H]1CCNC1=O)NC(=O)[C@@H](CC(=O)[C@@H](NC(=O)c1cc(C)on1)C(C)C)Cc1ccc(F)cc1" : does % inhibition of asexual blood stage proliferation equal or exceed 60%?
Output line: not met

Input line: What do you get for "N[C@H](CCC(=O)N[C@@H](Cc1c[nH]c2ccccc12)C(=O)O)C(=O)O" ?
Output line: not met

Input line: Next: CCCCCCCCC(CP(=O)(O)C(C)N)C(=O)O (stereo not drawn)
Output line: met

* * *

System: Plasmodium falciparum NF54 stage IV/V gametocytes
Run Description: % inhibition of gametocyte viability (ATP bioluminescence); higher = more inhibition
Particulars: 1 µM; 24 h
Measurement Label: % inhibition of gametocyte viability (%)
Provide the reading as a plain figure in %.

[[record]]
compound = "Nc1nc(F)nc2c1ncn2[C@H]1O[C@@H](CO)[C@H](O)[C@@H]1O"
measurement_label = "% inhibition of gametocyte viability"
readout_number = 11.1

[[record]]
compound = "CCN(CC)CCn1c(=N)n(CC(O)COc2ccc(Cl)cc2Cl)c2ccccc21 (configuration not stated)"
measurement_label = "% inhibition of gametocyte viability"
readout_number = 82.2

[[record]]
compound = "C[C@@H](NC(=O)c1ccccc1-c1ccccc1)B(O)O"
measurement_label = "% inhibition of gametocyte viability"
readout_number = 3.08


Input line: Requested field: % inhibition of gametocyte viability. Item: "COCCn1cnc2c(=O)[nH]c(Nc3ccccc3)nc21"
Output line: 7.08

Input line: Same question, "Cc1nc2ccc(Oc3ccccc3)cc2c2c1CCN2CCc1ccccc1" this time
Output line: 20.1

Input line: Do the same for Nc1cnn(C2OC(CO)C(O)C2O)c(=O)n1 (configuration not stated) please
Output line: 3.6

Input line: And the next one, "COc1ccc2nc(-c3ccccc3)cc(O)c2c1" ?
Output line: 29.5

Input line: Repeat with "CCNC(=O)Nc1cn2c(-c3ncc(CC)cn3)cc(-c3cccnc3)cc2n1"
Output line: 7.29

Input line: Moving on to "COc1c(NC(=O)[C@H]2CC[C@@H](COc3ccc([N+](=O)[O-])cc3)CC2)c(F)cc2c(=O)c(C(=O)O)cn(C3CC3)c12"
Output line: 0.404

Input line: What would you report for "N=C(N)c1ccc(COc2ccc(Cl)cc2)cc1" ?
Output line: 0.321

Input line: Record: "Cn1c2ccccc2c(=O)c2c(O)cccc21"
Output line: 6.28

Input line: Now give it for "CO/N=C(\C(=O)N[C@@H]1C(=O)N2C(C(=O)OCOC(=O)C(C)(C)C)=C(/C=C\c3scnc3C)CS[C@H]12)c1csc(N)n1" too.
Output line: 0.449

Input line: Now consider "C=C[C@]1(C)C[C@@H](OC(=O)CS[C@@H]2C[C@H]3CC[C@@H](C2)N3C)[C@]2(C)[C@H](C)CC[C@]3(CCC(=O)[C@H]32)[C@@H](C)[C@@H]1O" .
Output line: 1.57

Input line: What would you report for "COc1cc(Cc2cnc(N)nc2N)cc(OC)c1OC" ?
Output line: 0.869

Input line: Would you kindly repeat that for "CCCCN1C[C@H](O)[C@@H](O)[C@H](O)[C@H]1CO" ?
Output line: 3.94

Input line: Cool, now "COc1ccc2c(c1)cc(CNC(=O)c1cc3ccccc3o1)n2CC(=O)O"
Output line: 1.71

Input line: Here is the next compound: Nc1nc(NC2Cc3ccc(F)cc3C2)nc(N2CCCCC2)n1 (configuration not stated)
Output line: 5.3

Just for reference, the supplement of paper PMC7801607 is where these values come from.
